- EXPERIMENTAL SYSTEM: Sir2La (Lactobacillus acidophilus, UniProt Q5FMQ6)
- MEASUREMENT PROTOCOL: biochemical
- RUN CONDITIONS: 6 IC50 (µM), continuous, Ac-LGKac-AMC (2b); continuous assay
REPORTED METRIC: IC50 (µM)
Dear colleague, please return just the value in µM, with no unit written.

Identify measured IC50 corresponding to CC(=S)NCCCC[C@H](NC(=O)OCc1ccccc1)C(=O)N[C@@H](Cc1c[nH]c2ccccc12)C(=O)NC(C)C [compound 6, thioacetamide 6]
5.8

---

- EXPERIMENTAL SYSTEM: UniProt:Q5FMQ6
- Sequence (Q5FMQ6 1-239): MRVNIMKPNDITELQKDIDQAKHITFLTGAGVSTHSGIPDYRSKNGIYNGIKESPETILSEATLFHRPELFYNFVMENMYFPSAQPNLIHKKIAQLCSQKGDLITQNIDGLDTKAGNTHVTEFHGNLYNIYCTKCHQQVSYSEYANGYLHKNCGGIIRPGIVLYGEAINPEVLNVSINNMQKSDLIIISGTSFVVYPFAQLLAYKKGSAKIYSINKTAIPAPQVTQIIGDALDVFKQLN
- MEASUREMENT PROTOCOL: biochemical
- RUN CONDITIONS: 6 IC50 (µM), continuous, Ac-LGKpro-AMC (2c); continuous assay
REPORTED METRIC: IC50

Tell me its IC50 given CC(=S)NCCCC[C@H](NC(=O)OCc1ccccc1)C(=O)N[C@@H](Cc1c[nH]c2ccccc12)C(=O)NC(C)C [compound 6, thioacetamide 6] as the entry.
12 µM
